Each recorded value in this set is attributed to patent US20250101041A1.

- SUBJECT_OF_TEST: human mAChR M4 (Homo sapiens)
- Sequence (P08173 1-479): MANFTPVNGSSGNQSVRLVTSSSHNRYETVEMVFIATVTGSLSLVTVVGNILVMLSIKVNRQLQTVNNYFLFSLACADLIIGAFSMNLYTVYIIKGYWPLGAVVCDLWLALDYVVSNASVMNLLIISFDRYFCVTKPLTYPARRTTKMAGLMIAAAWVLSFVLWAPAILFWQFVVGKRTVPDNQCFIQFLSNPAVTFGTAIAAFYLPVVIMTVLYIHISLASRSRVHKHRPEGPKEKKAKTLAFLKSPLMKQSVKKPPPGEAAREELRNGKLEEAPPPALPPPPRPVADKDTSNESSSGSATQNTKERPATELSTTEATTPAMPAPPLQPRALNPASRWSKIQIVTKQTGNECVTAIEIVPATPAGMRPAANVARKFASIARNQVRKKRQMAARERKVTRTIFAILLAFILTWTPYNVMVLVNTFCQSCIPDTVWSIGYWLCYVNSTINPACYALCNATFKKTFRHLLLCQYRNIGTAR
- ASSAY_INFO: mAChR M4 cell-based functional assay: calcium mobilization (Fluo-4, FDSS), potentiation of EC20 acetylcholine response in hM4-Gqi5 CHO-K1 cells
- EXPERIMENTAL_SETUP: potentiation of EC20 acetylcholine response, calcium mobilization, human M4
Strictly below 700 nM in EC50: satisfied. Otherwise: not satisfied.

[[record]]
compound = "Cc1c(N2CCc3ncc(-c4cncc(C(F)(F)F)c4)cc3C2)nn2c(=O)ccnc2c1C [Compound 1-102]"
label_value = "not satisfied"

[[record]]
compound = "Cc1cc(=O)n2nc(N3CCc4ncc(-c5cncnc5)cc4C3)c(C)c(C)c2n1 [Compound 1-118]"
label_value = "not satisfied"

[[record]]
compound = "COCc1cc(=O)n2nc(N3CCc4ncc(-c5cccs5)cc4C3)c(C)cc2n1 [Compound 1-367]"
label_value = "satisfied"

[[record]]
compound = "COCc1cc(=O)n2nc(N3CCc4ncc(-c5cnc(F)cc5C)cc4C3)c(C)c(C)c2n1 [Compound 1-229]"
label_value = "satisfied"

[[record]]
compound = "Cc1cc2nccc(=O)n2nc1N1CCc2ncc(-c3scnc3C)cc2C1 [Compound 1-395]"
label_value = "satisfied"

[[record]]
compound = "Cc1ccc(-c2cnc3c(c2)CN(c2nn4c(=O)c(Cl)cnc4cc2C)CC3)cn1 [Compound 1-14]"
label_value = "satisfied"

[[record]]
compound = "Cc1cc2nccc(=O)n2nc1N1CCc2ncc(N3CC(C)(C)Oc4ccccc43)cc2C1 [Compound 2-51]"
label_value = "satisfied"

[[record]]
compound = "Cc1c(N2CCc3ncc(-c4ccccc4OC(F)(F)F)cc3C2)nn2c(=O)ccnc2c1C [Compound 1-265]"
label_value = "not satisfied"

